Below: a set of entries, each annotated with reported pIC50.
MEASURED_TARGET: Replicase polyprotein 1ab (Severe acute respiratory syndrome coronavirus 2, UniProt P0DTD1)
ASSAY_PROCEDURE: Inhibition of recombinant SARS-CoV-2 3CLpro expressed in Escherichia coli BL21 DE3 using FAM-KTSAVLQSGFRKMEK-TAMRA fluorogenic peptide as substrate preincubated for 1 hr followed by substrate addition measured after 30 mins by FRET assay
Bear in mind: pIC50 is minus log10 of a mol/L concentration; give just that figure.

Using known records, supply pIC50 for `CC(C)C[C@H](NC(=O)c1cc2ccccc2[nH]1)C(=O)NN(C[C@H]1CCNC1=O)C(=O)CCl` 8.52

Look up and state reported pIC50 for CC(C)C[C@H](NC(=O)OCc1ccccc1)C(=O)NN(CC1CCCNC1=O)C(=O)CCl (some centres not stated) 8.30
